System: Plasmodium berghei
Experiment: Screen against P. berghei liver stage (PbLuc), transformed with Luciferase, at 10uM
Type: functional, HepG2
Settings: tested at 10 uM
Screen size: about 69,000 compounds; about 8,600 (12%) showed an effect of 50% or more. The sample holds strong results, similar compounds and a random draw of the others, so the mix is not that of the screen.
measuredParameter: INHIBITION (%)
State just the number; it will be interpreted in %.

Request the reported INHIBITION associated with O=c1oc(-c2cccs2)nn1CC(O)c1ccc2c(c1)CCC2 (stereo not given) 59.4

Request the reported INHIBITION associated with "O=C(CN1CCC(C(=O)c2cc(F)ccc2F)CC1)NC1CCCC1" 51.3

Request the reported INHIBITION associated with "O=C(CN1CCC(C(=O)c2cc(F)ccc2F)CC1)NC1CC1" 56.5

Request the reported INHIBITION associated with Cc1ccc(CN2Cc3nccn3CC(Cn3cncn3)C2)s1 (stereo not given) -9.02

Request the reported INHIBITION associated with CN(CCc1cccs1)C1CCCN(Cc2noc(C3CC3)n2)C1 (stereo not given) 51.8

Request the reported INHIBITION associated with "COCCNc1nc(N2CCCC2)nc2nccnc12" 6.29

Request the reported INHIBITION associated with "Cc1ccc(Cn2nc(C)c3c(C(=O)O)c(Cl)c(C4CC4)nc32)cc1" 31.7

Request the reported INHIBITION associated with CCc1nc(CN(C)C2CCN(CCc3cccs3)C2)no1 (stereo not given) -79.1

Request the reported INHIBITION associated with "O=C(CCN1CCC(C(=O)c2cc(F)ccc2F)CC1)NC1CCCC1" 36.2

Request the reported INHIBITION associated with Cc1ccnc(C(Nc2nccc(-c3ccc(C)nc3C)n2)C2CC2)c1 (stereo not given) 41.3

Request the reported INHIBITION associated with OC(CNc1ccc(Cl)cn1)CN1CCOCC1 (stereo not given) -58.5

Request the reported INHIBITION associated with O=c1oc(-c2cccs2)nn1CC(O)c1ccccc1 (stereo not given) 0.547

Request the reported INHIBITION associated with "CN(C)c1nccc(N(C)Cc2nc3ccccc3n2C)n1" 55.5

Request the reported INHIBITION associated with "CCOc1cc(CN(C)CCOC)ccc1OC(F)F" 43.5

Request the reported INHIBITION associated with "CCN(Cc1cnn(C)c1)C[C@H]1CC[C@@H](Cc2ccc(C)nc2)O1" 12.9

Request the reported INHIBITION associated with O=c1c(NCc2ccccn2)c(NCC(O)CN2CCOCC2)c1=O (stereo not given) 50.8

Request the reported INHIBITION associated with "CN(Cc1ncnn1C)c1ccnc(Cc2ccccc2)n1" -7.16

Request the reported INHIBITION associated with "CC(C)N(Cc1ccccn1)C(=O)CCC(=O)c1ccccc1" 34.1

Request the reported INHIBITION associated with Cc1nc(CN2CCCC(N(C)CCc3cccs3)C2)no1 (stereo not given) 3.47

Request the reported INHIBITION associated with CCc1nc(CN2CCCC(N(C)CCn3cccn3)C2)no1 (stereo not given) 33.7

Request the reported INHIBITION associated with CCc1nc(CN2CCCC(N(C)CCc3cccs3)C2)no1 (stereo not given) 56.6

Request the reported INHIBITION associated with O=c1c(NCc2ccncc2)c(NCC(O)CN2CCOCC2)c1=O (stereo not given) 50.8

Request the reported INHIBITION associated with O=c1oc(-c2cccs2)nn1CC(O)c1ccc(F)cc1 (stereo not given) -23.5

Request the reported INHIBITION associated with "OCCN(Cc1ccccc1)Cc1ccsc1" 3.96

Request the reported INHIBITION associated with "CN(C)c1nccc(N(C)Cc2ncnn2C)n1" 32

# credit: ChEMBL document CHEMBL4513216
